Just for reference, ChEMBL document CHEMBL1201862 is where these values come from.

tested on: EKVX; assay: NCI tumour cell line growth inhibition, 48 h
The source made the active and inactive calls. Cut-off read from the data, not from the text of the source: active = GI50 up to about 1.1 µM and inactive = higher.
Each item that follows carries a reported GI50.

| compound | GI50 |
| --- | --- |
| CCOC1(OCC)C2C=CC1C(COS(=O)(=O)c1ccc(C)cc1)C2COS(=O)(=O)c1ccc(C)cc1 (centres undefined) | 22.4 µM (inactive) |
| CC1(C)O[C@@H](C[C@]2(C#N)C[C@H](CCl)OC(C)(C)O2)C[C@@H](C#N)O1 | > 100 µM (inactive) |
| N#Cc1nc(C#N)c(N)[nH]1 | > 100 µM (inactive) |
| COC(=O)C1=C(O)C(C(=O)OC)[C@@]2(O)[C@@H](C(=O)OC)C(c3ccc(OC(=O)/C=C/c4ccccc4)cc3)C[C@@H]1[C@@H]2C(=O)OC (some centres undefined) | 12.3 µM (inactive) |
| O=C1CNc2cc(N3CCCCC3)ccc2N1 | 21.2 µM (inactive) |
| CC(C)(C)C1CC[C@H]2c3c([nH]c4ccc(Br)cc34)[C@H]3C(=O)N(c4ccccc4)C(=O)[C@H]3[C@H]2C1 (some centres undefined) | 92.9 µM (inactive) |
| Cn1c(C(C#N)c2nc(Cl)ncc2Br)nc2ccccc21 (centres undefined) | > 100 µM (inactive) |
| Cc1ccc(SC(C)/C=C/NNC2=NN=C(c3ccccc3)C(c3ccccc3)N2)cc1 (centres undefined) | 44.8 µM (inactive) |
| N#CC(NCCO)=C1C(=O)c2ccccc2C1=O | > 100 µM (inactive) |

----------
Each item that follows carries a reported GI50.
test system: HCT-116; test: NCI tumour cell line growth inhibition, 48 h
Activity calls are given as the source filed them. Cut-off read from the data, not from the text of the source: active = GI50 up to about 1.1 µM and inactive = higher.
measurement_name: GI50

| compound | measurement_name | value_observed |
| --- | --- | --- |
| COc1ccc(/C=C(\C(=C/c2ccc(OC)cc2)[N+](=O)[O-])[N+](=O)[O-])cc1 | GI50 | 10.2 µM (inactive) |
| NS(=O)(=O)c1ccc(NS(=O)(=O)c2ccc(NC(=O)N(c3ccccc3)c3ccccc3)cc2)cc1 | GI50 | 82.4 µM (inactive) |
| N#CCC(=O)N/N=C1/C(=O)NC(=O)C(=O)C1c1nc2ccccc2s1 (stereo not given) | GI50 | > 100 µM (inactive) |
| Cc1nc2ccc(Cl)cc2c2c1CCO2 | GI50 | 97.5 µM (inactive) |
| Cc1n[nH]c(=O)n1N1C(=O)c2ccccc2C1=O | GI50 | > 100 µM (inactive) |
| CC(C)(C)OC(=O)c1ccc(NCC2=CC(=O)C=CC2=O)cc1 | GI50 | 13.2 µM (inactive) |
| CCC(c1ccccc1)c1cc(C(C)(C)C)cc(C(C)(C)C)c1O (stereo not given) | GI50 | 12.9 µM (inactive) |
| O=C1c2c(O)cc(O)cc2C(C2OC(CO)C(O)C(O)C2O)c2cc(CO)cc(O)c21 (stereo not given) | GI50 | > 100 µM (inactive) |
| O=C(/C=C/c1ccc(O)c(O)c1)OCCc1cccc2ccccc12 | GI50 | 3.24 µM (inactive) |
| COc1ccc(C(=O)Nc2ccc3oc(-c4ccccc4)nc3c2)cc1 | GI50 | > 100 µM (inactive) |

----------
tested on: ACHN; assay: NCI tumour cell line growth inhibition, 48 h
Calls of active or inactive are those of the source. No stated cut-off is given here; in the data, active = GI50 up to about 1.1 µM and inactive = higher. Residues, ends and D or L forms follow the SMILES beside them. *: point of attachment. Boc = CC(C)(C)OC(=O)*; OBn = c1ccc(CO*)cc1
Outcome codes: active, inactive

| molecule | discrete_label |
| --- | --- |
| CN1C(=O)c2ccccc2C(O)(c2ccccc2)C1(O)c1ccccc1 (centres undefined) | inactive |
| CNC1=C(C)C(=O)C2=C(C1=O)C(COC(N)=O)C1(OC)C3NC3CN21 (centres undefined) | active |
| Cc1c(F)c(N)c2c(=O)cc(-c3ccc(N)c(F)c3)oc2c1F | inactive |
| Cc1ccc(SC(C)/C=C/NNC2=NN=C(c3ccccc3)C(c3ccccc3)N2)cc1 (centres undefined) | inactive |
| OC1[C@H](O)CN(OCc2ccccc2)C[C@@H]1O (some centres undefined) | inactive |
| COC(=O)/C(=N/NC(C)(C)C)C(C(=O)C=C(C)C)C(=O)C(=O)Nc1ccc(Cl)cc1C (centres undefined) | inactive |
| CC(C)C(NC(=O)CNC(=O)C1CCCN1C(=O)C(NC(=O)OC(C)(C)C)C(C)C)C(=O)NCC(=O)OCc1ccccc1 (centres undefined) (Boc-VPGVG-OBn; configuration not given here) | inactive |
| CC1(C)OC2OC(COC(=O)c3ccc(C#N)cc3)C3OC(C)(C)OC3C2O1 (centres undefined) | inactive |
| OC(c1cc2ccccc2o1)c1cc2ccccc2s1 (centres undefined) | inactive |
